Here the recorded amyloid nucleation score is given for each entry.
Test: amyloid nucleation score (Sup35N fusion, yeast selection) (log enrichment); library NNK2; higher = more nucleation; inactive = no reads after selection;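 also: zero at mode of non-aggregating sequences after 7 days selection at 30°C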
Measured attribute: amyloid nucleation score

- Substance: "RTVYYHQFPGSGFVYVSGFS"
  Measured attribute: "amyloid nucleation score"
  Reading: -0.324
- Substance: "SNWFLWHTSTRFMIKENIMY"
  Measured attribute: "amyloid nucleation score"
  Reading: 0.516
- Substance: "VSAEWLYTGVWPMRLRSSGV"
  Measured attribute: "amyloid nucleation score"
  Reading: 3.95
- Substance: "EICLDAITVVPLHGSIRLTV"
  Measured attribute: "amyloid nucleation score"
  Reading: 0.764
- Substance: "VFQQFNS"
  Measured attribute: "amyloid nucleation score"
  Reading: 0.244
- Substance: "RCQTFLGKETPSFYRKIVKF"
  Measured attribute: "amyloid nucleation score"
  Reading: -1.02
- Substance: "SSSAIHLRFNYCYHCFHSLT"
  Measured attribute: "amyloid nucleation score"
  Reading: 5.08
- Substance: "FYLNKDNLWNSNLGGSAHKC"
  Measured attribute: "amyloid nucleation score"
  Reading: -2.38
- Substance: "VRLHGLLHANMGKTFMLLLS"
  Measured attribute: "amyloid nucleation score"
  Reading: -0.486
- Substance: "YPPSVLFVSALHQVGTMSGG"
  Measured attribute: "amyloid nucleation score"
  Reading: 0.003
- Substance: "HCLIMGDNDGTLRTLGGR"
  Measured attribute: "amyloid nucleation score"
  Reading: -0.104
- Substance: "IADIVQGSGVAT"
  Measured attribute: "amyloid nucleation score"
  Reading: -0.178
- Substance: "RSILEM"
  Measured attribute: "amyloid nucleation score"
  Reading: -0.302
- Substance: "FVIVFVRRSNTFLAPQKVWG"
  Measured attribute: "amyloid nucleation score"
  Reading: 1.6

====

Test: amyloid nucleation score (Sup35N fusion, yeast selection) (log enrichment); library NNK3; higher = more nucleation; inactive = no reads after selection

- Residue string: "LRYGEFSCSNLYFTWLSFIL"
  amyloid nucleation score: 0.749
- Residue string: "CSLNLCVKDTHIHEN"
  amyloid nucleation score: "inactive"
- Residue string: "ISRAVRILVVFDEVWMCSDG"
  amyloid nucleation score: "inactive"
- Residue string: "GIRYQRFVRRVFHDYWR"
  amyloid nucleation score: "inactive"
- Residue string: "DVPVKNSYDFMYDCWAMPCS"
  amyloid nucleation score: "inactive"
- Residue string: "IISVIVTVYR"
  amyloid nucleation score: "inactive"
- Residue string: "PLRLCNPLSGFVPLLFTAFR"
  amyloid nucleation score: "inactive"
- Residue string: "ERKCLLCNYHMY"
  amyloid nucleation score: "inactive"
- Residue string: "GHSHCMNSVLHSNMSLNTVI"
  amyloid nucleation score: "inactive"
- Residue string: "RVHFALYSV"
  amyloid nucleation score: 1.65
- Residue string: "TMFIVNTNIWSGVCISDNTW"
  amyloid nucleation score: 1.78
- Residue string: "RLVYPSVSSLKPIRSCWLG"
  amyloid nucleation score: "inactive"
- Residue string: "VGYVWIDRYVWRYGLC"
  amyloid nucleation score: "inactive"
- Residue string: "RDVMWVNHVYCMLEFWTWVV"
  amyloid nucleation score: "inactive"
- Residue string: "IEDQHLHVVLTGWGSKLSGH"
  amyloid nucleation score: "inactive"
- Residue string: "LRNLVTWRVQSKWFSIQSSW"
  amyloid nucleation score: "inactive"
- Residue string: "ACVSGIIFLLREQLLKMSGI"
  amyloid nucleation score: "inactive"
